tested on: Caco-2; assay: cell viability relative to DMSO; higher = less toxic; settings: 72 h; 1 nM
Hi there, I'd appreciate the recorded cell viability for every entry that follows.
Reply numerically in %, unit not repeated.

Query string: Look up and state reported cell viability for CC(C)(C)c1ccc(CN2CCN(C(c3ccccc3)c3ccc(Cl)cc3)CC2)cc1 (centres undefined)
Result string: 108

Query string: Look up and state reported cell viability for Cc1ccc2c(c1)C(=O)[C@]1(O)CCN(c3ccccc3)C1=N2 (racemic) [blebbistatin-(+/-)]
Result string: 100

Query string: Look up and state reported cell viability for CN(NC(=O)CC(=O)NN(C)C(=S)c1ccccc1)C(=S)c1ccccc1
Result string: 93.9

Query string: Look up and state reported cell viability for NNC(=O)CSc1nc2scc(-c3ccccc3)c2c(=O)n1-c1ccccc1
Result string: 100

Query string: Look up and state reported cell viability for COc1cc(OC)cc(C(=O)NNC(=O)Nc2cccc3ccccc23)c1
Result string: 96.3

Query string: Look up and state reported cell viability for O=C(O)c1cc(-c2ccc(F)cc2F)ccc1O
Result string: 93.3

Query string: Look up and state reported cell viability for CC(C)(C)c1ccc(/C=C/C(=O)Nc2ccc3c(c2)OCCO3)cc1
Result string: 94.9

Query string: Look up and state reported cell viability for Nc1ccc(/N=N/c2ccccc2)c(N)n1
Result string: 85.4

Query string: Look up and state reported cell viability for C[C@]12CCC(=O)C(O)=C1CC[C@@H]1[C@@H]2CC[C@]2(C)C(=O)CC[C@@H]12
Result string: 114

---

test system: U2OS; assay: cell viability relative to DMSO; higher = less toxic; settings: 72 h; 10 nM
Hi there, I'd appreciate the recorded cell viability for every entry that follows.
Reply numerically in %, unit not repeated.

Query string: Look up and state reported cell viability for CN1C(=O)OC(C)(C)C1=O
Result string: 99.9

Query string: Look up and state reported cell viability for CS(=O)(=O)N(Cc1ccco1)C[C@@H](O)Cn1c2ccccc2c2ccccc21
Result string: 98.4

Query string: Look up and state reported cell viability for O=C(Nc1ccncc1)C(=O)c1cn(Cc2ccc(Cl)cc2)c2ccccc12
Result string: 99

Query string: Look up and state reported cell viability for CN1C(=O)C(N2CCCCC2)S/C1=C\C(=O)O (centres undefined)
Result string: 97.5

Query string: Look up and state reported cell viability for Cc1[nH]c2ccccc2c1CCNC(=O)c1cccs1
Result string: 101

Query string: Look up and state reported cell viability for CCN1/C(=C/C(C)=O)Sc2ccc(OC)cc21
Result string: 98.7

Query string: Look up and state reported cell viability for COc1ccc2nc(NC(=O)Nc3ccccc3)sc2c1
Result string: 97.2

Query string: Look up and state reported cell viability for CCCCC(F)(F)[C@@]1(O)CC[C@H]2[C@@H](CC(=O)[C@@H]2CCCCCCC(=O)O)O1
Result string: 102

Query string: Look up and state reported cell viability for c1ccc(-c2nc(CN3CCN(c4ncccn4)CC3)c[nH]2)cc1
Result string: 95.5

Query string: Look up and state reported cell viability for COc1cc(NS(C)(=O)=O)ccc1Nc1c2ccccc2nc2ccccc12
Result string: 98.1

Query string: Look up and state reported cell viability for COc1c(O)cc2c(c1O)[C@@H]1O[C@H](CO)[C@@H](O)[C@H](O)[C@H]1OC2=O
Result string: 97.8

Query string: Look up and state reported cell viability for O=c1c(-c2ccc(O)cc2)coc2c([C@@H]3O[C@H](CO)[C@@H](O)[C@H](O)[C@H]3O)c(O)ccc12 [kakonein]
Result string: 95.1

Query string: Look up and state reported cell viability for COc1cc(N)c(Cl)cc1C(=O)NC1CN2CCC1CC2 (centres undefined) [zacopride]
Result string: 96.3

Query string: Look up and state reported cell viability for C#CCN(C)Cc1ccccc1
Result string: 101

Query string: Look up and state reported cell viability for CCOc1nc2cccc(C(=O)O)c2n1Cc1ccc(-c2ccccc2-c2noc(=O)[nH]2)cc1
Result string: 93.6

Query string: Look up and state reported cell viability for CS(=O)(=O)c1ccc(Oc2cc(F)cc(C#N)c2)c2c1[C@H](O)C(F)(F)C2
Result string: 97.3

Query string: Look up and state reported cell viability for COc1ccc2c(NC(=O)Nc3cccc(C(F)(F)F)n3)ccnc2c1
Result string: 96.6

Query string: Look up and state reported cell viability for COC(=O)c1sccc1S(=O)(=O)Nc1ccc(Nc2ccccc2)cc1OC
Result string: 95.4

Query string: Look up and state reported cell viability for COc1cc2c(cc1OCCCN1CCCC1)N=C(N)C21CCC1
Result string: 102
